The measured values listed here are drawn from patent US20100041892A1.

Reported melting point values follow for various compounds

Here are 7 compounds together with their reported answers.
CCN(CC)C(=O)COc1ccc(CCCOC(=O)NCC2CC2)c(Oc2ncc(C(F)(F)F)cc2Cl)c1: 94 to 94.5 °C
CCCCOc1cc(/C=C/C(=O)NS(=O)(=O)CCC(C)C)n(Cc2ccc(Cl)cc2Cl)n1: 119 to 120 °C
COCCOc1ccc(CCCNS(=O)(=O)Cc2ccccc2)c(Oc2ncc(C(F)(F)F)cc2Cl)c1: 97 to 100 °C
CCCCCS(=O)(=O)NC(=O)/C=C/c1ccc(OCCOC)cc1Nc1ccc(C(F)(F)F)cc1: 142.3 to 142.6 °C
COCCCNS(=O)(=O)NC(=O)OC/C=C/c1ccc(OCCOC)cc1Oc1ncc(C(F)(F)F)cc1Cl: 98 to 100 °C
CCCCCS(=O)(=O)NC(=O)/C=C/c1ccc(OCCC(C)(C)O)cc1Oc1ncc(C(F)(F)F)cc1Cl: 135.5 to 136 °C
CCCCNC(=O)OCCCc1ccc(OCCOC)cc1Oc1ncc(C(F)(F)F)cc1Cl: 91.7 to 91.8 °C

Now, please, on to the next compound.
QUERY: Entry under review: COCCOc1ccc(/C=C/C(=O)NS(=O)(=O)c2cccc(C)c2)c(Oc2ncc(C(F)(F)F)cc2Cl)c1 . Reported melting point?
RESULT: 147 to 147.5 °C

====

Reported melting point values follow for various compounds

Here are 5 compounds together with their reported answers.
CCCCCS(=O)(=O)NC(=O)CCc1ccc(OCCOC)cc1Oc1ncc(Cl)cc1Cl: 92.2 to 93.6 °C
CCCCCS(=O)(=O)NC(=O)OCc1ccc(OS(=O)(=O)CCC)cc1Oc1ncc(C(F)(F)F)cc1Cl: 86 to 89 °C
COCCOc1ccc(/C=C/C(=O)NS(=O)(=O)CC(F)(F)F)c(Oc2ncc(C(F)(F)F)cc2Cl)c1: 146 to 147.5 °C
CCCCCS(=O)(=O)NC(=O)/C=C/c1ccc(OCC(O)COC(C)C)cc1Oc1ncc(C(F)(F)F)cc1Cl (stereo not drawn): 86 to 88 °C
CCCCCS(=O)(=O)NC(=O)/C=C/c1ccc(OCCOC)cc1NC(=O)c1ccc(Cl)cc1Cl: 176.8 to 177.1 °C

QUERY: Entry under review: COCCOc1ccc(CCCNS(=O)(=O)c2ccccc2[N+](=O)[O-])c(Oc2ncc(C(F)(F)F)cc2Cl)c1 . Reported melting point?
RESULT: 125.5 to 126 °C

QUERY: Entry under review: COCCCS(=O)(=O)NC(=O)CCc1ccc(OC(C)C)cc1Oc1ncc(C(F)(F)F)cc1Cl . Reported melting point?
RESULT: 114 to 115 °C

QUERY: Entry under review: CCCCOC(=O)NS(=O)(=O)/C=C/c1cc(OCCCC)nn1Cc1ccc(Cl)cc1Cl . Reported melting point?
RESULT: 137 to 138 °C

====

Reported EC50 values follow for various compounds
Subject Of Test: PPARγ-RXRα heterodimer (Homo sapiens, UniProt P37231)
Sequence (P37231 1-477 isoform P37231-2): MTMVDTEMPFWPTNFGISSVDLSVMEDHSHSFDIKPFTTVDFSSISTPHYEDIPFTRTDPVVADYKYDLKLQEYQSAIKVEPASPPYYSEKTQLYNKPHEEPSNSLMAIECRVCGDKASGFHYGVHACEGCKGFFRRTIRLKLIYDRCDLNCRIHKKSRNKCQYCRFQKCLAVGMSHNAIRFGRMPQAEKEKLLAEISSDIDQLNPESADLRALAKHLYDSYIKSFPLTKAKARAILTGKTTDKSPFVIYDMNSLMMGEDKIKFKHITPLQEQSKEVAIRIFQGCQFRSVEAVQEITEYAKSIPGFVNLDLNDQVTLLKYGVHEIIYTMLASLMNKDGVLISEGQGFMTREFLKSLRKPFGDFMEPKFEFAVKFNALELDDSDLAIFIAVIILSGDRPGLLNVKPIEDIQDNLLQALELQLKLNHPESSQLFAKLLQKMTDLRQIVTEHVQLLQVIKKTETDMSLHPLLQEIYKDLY
Sequence (P19793 1-462 partner): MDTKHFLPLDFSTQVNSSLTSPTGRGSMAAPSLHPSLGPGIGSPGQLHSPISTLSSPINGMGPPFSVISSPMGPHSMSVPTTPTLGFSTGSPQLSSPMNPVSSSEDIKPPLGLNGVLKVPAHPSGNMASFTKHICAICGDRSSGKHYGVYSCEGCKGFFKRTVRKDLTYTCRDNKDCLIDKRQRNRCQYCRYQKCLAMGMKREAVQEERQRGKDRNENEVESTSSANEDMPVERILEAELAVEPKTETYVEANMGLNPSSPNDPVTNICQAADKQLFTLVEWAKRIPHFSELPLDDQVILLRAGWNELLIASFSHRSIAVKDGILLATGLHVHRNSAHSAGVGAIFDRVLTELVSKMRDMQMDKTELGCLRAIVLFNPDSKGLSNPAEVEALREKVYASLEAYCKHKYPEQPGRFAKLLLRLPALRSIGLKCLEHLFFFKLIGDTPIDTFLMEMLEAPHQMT
Test Summary: PPARγ-RXRα heterodimer ligand activity (luciferase reporter, PPARγ:RXRα:4ERPP/CHO-K1 cells)
Test Conditions: concentration showing 50% of the maximum luciferase induction rate; CHO-K1 reporter cells, one day incubation

Here are 5 compounds together with their reported answers.
CCCCCS(=O)(=O)NC(=O)CCc1ccc(OCCOC)cc1Oc1ncc(C(F)(F)F)cc1Cl [Example 1]: 1.5 nM
COCCOc1ccc(CCCOC(=O)NCC2CC2)c(Oc2ncc(C(F)(F)F)cc2Cl)c1 [Example 51]: 20 nM
CCCCCS(=O)(=O)NC(=O)OCc1ccc(OCCOC)cc1Oc1ncc(C(F)(F)F)cc1Cl [Example 58]: 10 nM
CCCCCS(=O)(=O)NC(=O)CCc1cc(C(C)C)nn1Cc1ccc(C(F)(F)F)cc1Cl [Example 96]: 8.4 nM
CCCCCS(=O)(=O)NC(=O)/C=C/c1ccc(OC(COCC)COCC)cc1Oc1ncc(C(F)(F)F)cc1Cl [Example 198]: 7.8 nM

Now, please, on to the next compound.
QUERY: Entry under review: CCCCCS(=O)(=O)NC(=O)OCc1ccc(OS(=O)(=O)CCC)cc1Oc1ncc(C(F)(F)F)cc1Cl [Example 64] . Reported EC50?
RESULT: 8.7 nM

====

Reported melting point values follow for various compounds

Here are 8 compounds together with their reported answers.
CCCCCC(=O)NS(=O)(=O)CCc1cc(OC(C)C)nn1Cc1ccc(Cl)cc1Cl: 107 to 108 °C
CCCCCS(=O)(=O)NC(=O)/C=C/c1ccc(OCC2CCCO2)cc1Oc1ncc(C(F)(F)F)cc1Cl (stereo not drawn): 126.5 to 128.5 °C
CCCCCS(=O)(=O)NC(=O)/C=C/c1ccc(OCCOC)cc1NC(=O)c1ccc(F)cc1F: 140 to 140.8 °C
COCCOc1ccc(CCCOC(=O)NCC2CC2)c(Oc2ncc(C(F)(F)F)cc2Cl)c1: 87.8 to 87.9 °C
COCCOc1ccc(/C=C/C(=O)NS(=O)(=O)c2cccc(Cl)c2)c(Oc2ncc(C(F)(F)F)cc2Cl)c1: 157 to 158 °C
COCCOc1ccc(CCCOC(=O)NS(=O)(=O)c2ccc(Cl)cc2)c(Oc2ncc(C(F)(F)F)cc2Cl)c1: 147 to 150 °C
COCCOc1ccc(CCC(=O)NS(=O)(=O)CCC(C)C)c(Oc2ncc(C(F)(F)F)cc2Cl)c1: 130 to 132 °C
COCCOc1ccc(CCCOC(=O)NS(=O)(=O)NCCc2ccccn2)c(Oc2ncc(C(F)(F)F)cc2Cl)c1: 91 to 93 °C

QUERY: Entry under review: COCCCS(=O)(=O)NC(=O)/C=C/c1cc(OC(C)C)nn1Cc1ccc(C(F)(F)F)cc1Cl . Reported melting point?
RESULT: 138 to 139 °C

QUERY: Entry under review: CCCCCS(=O)(=O)NC(=O)/C=C/c1cc(OCCOC)nn1Cc1ccc(C(F)(F)F)cc1Cl . Reported melting point?
RESULT: 130.5 to 132.5 °C

QUERY: Entry under review: CCCCCS(=O)(=O)NC(=O)/C=C/c1ccc(OCCO[Si](C(C)C)(C(C)C)C(C)C)cc1Oc1ncc(C(F)(F)F)cc1Cl . Reported melting point?
RESULT: 106 to 108 °C

QUERY: Entry under review: CC(C)CCS(=O)(=O)NC(=O)CCc1cc(C2CC2)nn1Cc1ccc(C(F)(F)F)cc1Cl . Reported melting point?
RESULT: 160.5 to 162.5 °C

QUERY: Entry under review: CCCCCS(=O)(=O)NC/C=C/c1ccc(OCCOC)cc1Oc1ncc(C(F)(F)F)cc1Cl . Reported melting point?
RESULT: 106 to 106.5 °C

QUERY: Entry under review: C/C(=C\c1ccc(OC(C)C)cc1Oc1ncc(C(F)(F)F)cc1Cl)C(=O)NS(=O)(=O)NC1CCC(C)CC1 (stereo not drawn) . Reported melting point?
RESULT: 176.8 to 177.2 °C

QUERY: Entry under review: COCCOc1ccc(CCCOC(=O)NS(N)(=O)=O)c(Oc2ncc(Cl)cc2Cl)c1 . Reported melting point?
RESULT: 153.2 to 153.8 °C

QUERY: Entry under review: CCCCCS(=O)(=O)NC(=O)CCc1ccc(OCCOC)cc1OCC1CCCO1 (stereo not drawn) . Reported melting point?
RESULT: 57.8 to 58.9 °C

QUERY: Entry under review: CC(C)Oc1cc(/C=C/S(=O)(=O)NC(=O)OC(C)(C)C)n(Cc2ccc(Cl)cc2Cl)n1 . Reported melting point?
RESULT: 152 to 153 °C

QUERY: Entry under review: CCCCCS(=O)(=O)NC(=O)/C=C/c1cc(OCC2CC2)nn1Cc1ccc(C(F)(F)F)cc1Cl . Reported melting point?
RESULT: 148 to 151 °C

QUERY: Entry under review: COCCCNS(=O)(=O)NC(=O)/C(C)=C/c1ccc(OC(C)C)cc1Oc1ncc(C(F)(F)F)cc1Cl . Reported melting point?
RESULT: 120 to 121 °C

QUERY: Entry under review: CCCCCNS(=O)(=O)NC(=O)/C(C)=C/c1ccc(OC(C)C)cc1Oc1ncc(C(F)(F)F)cc1Cl . Reported melting point?
RESULT: 137.8 to 138.5 °C

QUERY: Entry under review: CCOCCNC(=O)OCCCc1ccc(OCCOC)cc1Oc1ncc(C(F)(F)F)cc1Cl . Reported melting point?
RESULT: 66 to 68 °C

QUERY: Entry under review: CCCCCS(=O)(=O)NC(=O)/C=C/c1ccc(OCCOC)cc1OCC1CC1 . Reported melting point?
RESULT: 64.8 to 66.3 °C

QUERY: Entry under review: COCCCS(=O)(=O)NC(=O)CCc1cc(C(C)(C)C)nn1Cc1ccc(C(F)(F)F)cc1Cl . Reported melting point?
RESULT: 149 to 150 °C

QUERY: Entry under review: CC(C)CCS(=O)(=O)NC(=O)/C=C/c1cc(OC2CCOCC2)nn1Cc1ccc(Cl)cc1Cl . Reported melting point?
RESULT: 143 to 144 °C
